Origin of measurements: ChEMBL document CHEMBL3433997

biological target: Solute carrier family 2, facilitated glucose transporter member 1 (Homo sapiens) (UniProt P11166); assay: ST_JUDE_LEISH: Cytotoxicity at 2uM final concentration against transgenic Leishmania Mexicana promastigotes LmGLUT1 that are glucose transport deficient and complemented with the human glucose transporter GLUT1. Activity is measured by DNA content using SYBR green in vitro; type: functional
Sequence (P11166 whole entry): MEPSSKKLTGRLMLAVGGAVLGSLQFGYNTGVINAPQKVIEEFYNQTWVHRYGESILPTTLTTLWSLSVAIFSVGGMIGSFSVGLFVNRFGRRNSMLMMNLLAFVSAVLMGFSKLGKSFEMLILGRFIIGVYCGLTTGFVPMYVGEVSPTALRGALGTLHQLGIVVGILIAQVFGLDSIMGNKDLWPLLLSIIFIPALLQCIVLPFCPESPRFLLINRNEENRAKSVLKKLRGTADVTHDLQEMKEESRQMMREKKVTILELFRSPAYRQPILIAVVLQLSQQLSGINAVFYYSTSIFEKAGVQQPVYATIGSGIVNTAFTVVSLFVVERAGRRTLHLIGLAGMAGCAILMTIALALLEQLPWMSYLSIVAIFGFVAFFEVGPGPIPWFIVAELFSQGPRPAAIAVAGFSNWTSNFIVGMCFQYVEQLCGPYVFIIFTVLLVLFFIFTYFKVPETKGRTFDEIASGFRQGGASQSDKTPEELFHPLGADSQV
TEST_READOUT: inhibition (%)
One number for each entry, in %.

Example compounds with recorded inhibition:
O=C(/C=C/c1ccc(Cl)c(Cl)c1)NCCCCCN1CCC(CCNC(=O)C2(c3ccc(Cl)cc3)CC2)CC1    16.5
O=C1COc2cc(Cl)c(CNC3CCN(CCc4ccnc5c(F)cc(F)cc45)CC3)nc2N1    2.1
S=C(NCCCCCN1CCC(c2c[nH]c3ccccc23)CC1)Nc1cccc(I)c1    0.7
COc1ccc2nc3cc(Cl)ccc3c(Nc3ccc(O)c(CNC(C)C)c3)c2c1    0.29

Record request: inhibition value, item Cc1cccc2nc(-c3cccc(-c4cccc(NC(=O)C(C)CN(C)C)c4)c3)[nH]c12 (stereo not given)
1.51
